Test system: HepG2
Procedure Text: Cytotoxicity in uninfected human hepG2 assessed as reduction in cell viability by XTT assay
Assay type: cell-based
Condition: hepg2
Where a name gives a salt, the structure may show the parent alone.
Task for the reader: assign each of the following compounds its reported CC50.
Give bare numbers, in µM.

Please review the following examples before continuing.
CCCCCCCCCCCCCCCCSSCc1ccccc1COP(=O)(O)CO[C@H](C)Cn1cnc2c(N)ncnc21; 32.5
CCCCCCCCCCCCCCCCSSc1ccccc1COP(=O)(O)CO[C@H](C)Cn1cnc2c(N)ncnc21; 17.5

Record CC(C)OC(=O)OCOP(=O)(CO[C@H](C)Cn1cnc2c(N)ncnc21)OCOC(=O)OC(C)C [TENOFOVIR DISOPROXIL FUMARATE] , field CC50: 64.5
